Taken from paper PMC5628579.

TEST_SYSTEM: SIRT5 (Homo sapiens)
Sequence (Q9NXA8 37-310): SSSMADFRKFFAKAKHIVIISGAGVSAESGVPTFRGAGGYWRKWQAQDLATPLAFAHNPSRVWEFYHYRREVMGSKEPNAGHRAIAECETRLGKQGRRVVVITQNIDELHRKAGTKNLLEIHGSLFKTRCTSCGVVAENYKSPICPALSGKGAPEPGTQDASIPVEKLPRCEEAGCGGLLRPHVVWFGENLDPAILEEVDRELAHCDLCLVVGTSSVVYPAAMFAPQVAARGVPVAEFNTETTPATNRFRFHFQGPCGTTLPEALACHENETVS
MEASUREMENT_PROTOCOL: Fluor de Lys SIRT5 assay
TEST_CONDITIONS: read-out: % inhibition at 10 μM SIRT5
OBSERVABLE: inhibition at 10 µM (%)
The reply should contain only the number, in %.

COMPOUND: CCCCCNC(=O)CNC(=O)c1ccccc1Nc1cccc(OCCc2ccccc2)c1
UNIT_OF_MEASUREMENT: %
REPORTED: 6

Problem: Item under review: "CCCNC(=S)CNC(=O)c1ccccc1Nc1cccc(OCCc2ccccc2)c1" . Reported inhibition at 10 µM?
Result: 1

Problem: Item under review: "CCCCCNC(=S)CNC(=O)c1ccccc1Nc1cccc(OCCc2ccccc2)c1" . Reported inhibition at 10 µM?
Result: 0

Problem: Item under review: CN(C)CCCCC(=O)Nc1ccc(NC(=S)NC(=O)c2ccc(C(C)(C)C)cc2)cc1 [Compound 3, tenovin-6, reference compound] . Reported inhibition at 10 µM?
Result: 0

Problem: Item under review: "NC(=O)CNC(=O)c1ccccc1Nc1cccc(OCCc2ccccc2)c1" . Reported inhibition at 10 µM?
Result: 0

Problem: Item under review: O=C(Nc1cccc([N+](=O)[O-])c1)c1cccc(S(=O)(=O)N2CCCCCC2)c1 [Compound 8, AK-1, reference compound] . Reported inhibition at 10 µM?
Result: 0

* * *

This section presents compounds with their documented inhibition at 1 µM values.
TEST_SYSTEM: SIRT2 (Homo sapiens)
Sequence (Q8IXJ6 1-389): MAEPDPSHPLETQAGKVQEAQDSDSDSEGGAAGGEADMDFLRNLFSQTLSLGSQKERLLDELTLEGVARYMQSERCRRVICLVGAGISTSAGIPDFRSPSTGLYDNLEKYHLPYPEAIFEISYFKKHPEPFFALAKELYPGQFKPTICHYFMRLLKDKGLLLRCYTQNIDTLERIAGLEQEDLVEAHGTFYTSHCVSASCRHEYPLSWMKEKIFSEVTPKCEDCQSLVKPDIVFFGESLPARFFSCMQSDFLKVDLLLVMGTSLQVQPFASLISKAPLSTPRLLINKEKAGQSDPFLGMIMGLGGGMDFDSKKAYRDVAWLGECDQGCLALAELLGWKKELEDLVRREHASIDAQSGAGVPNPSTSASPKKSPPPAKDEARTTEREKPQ
MEASUREMENT_PROTOCOL: Fluor de Lys SIRT2 assay
TEST_CONDITIONS: read-out: % inhibition at 1 μM SIRT2
The reply should contain only the number, in %.

Consider the following illustrative entries.
COMPOUND: C[C@H](NC(=O)[C@H](CCCCNC(=O)CNC(=O)c1ccccc1Nc1cccc(OCCc2ccccc2)c1)NC(=O)OCc1ccccc1)C(N)=O
TEST_SYSTEM: SIRT2 (Homo sapiens)
inhibition at 1 µM / %: 74
--
COMPOUND: NC(=O)CNC(=O)c1ccccc1Nc1cccc(OCCc2ccccc2)c1
TEST_SYSTEM: SIRT2 (Homo sapiens)
inhibition at 1 µM / %: 19

Problem: Item under review: CC(=S)NCCCC[C@H](NC(=O)OCc1ccccc1)C(=O)N[C@@H](C)C(N)=O [UKU 10363, reference compound] . Reported inhibition at 1 µM?
Result: 56
